src = ChEMBL document CHEMBL1129963

ASSAY PROCEDURE: Metabolic breakdown to the o-sulfate of p-chloroaniline (2-amino-5-chlorophenyl sulfate) by giving 100 mg/kg oral doses of the compound
Type: ADME, organism-based
Set-up: dose 100 mg/kg, route oral
CONDITION DETAILS: in vivo
Activity reference

MOLECULE: N[S+]([O-])(=NC(=O)Nc1ccc(Cl)cc1)c1ccc2c(c1)CCC2 (centres undefined)
SIGN: <
Activity / µM: 0.15

MOLECULE: Cc1ccc([S+](N)([O-])=NC(=O)Nc2ccc(Cl)cc2)cc1 (stereo in doubt; 14)
SIGN: <
Activity / µM: 0.2

MOLECULE: CN[S+]([O-])(=NC(=O)Nc1ccc(Cl)cc1)c1ccc(C)cc1 (centres undefined)
SIGN: =
Activity / µM: 1.2

MOLECULE: Cc1ccc([S+](N)([O-])=NC(=O)Nc2ccc(Cl)cc2)cc1 (single isomer, unassigned; (-))
SIGN: =
Activity / µM: 0.58
